Percent Effect values for the compounds below.
tgt: Tyrosyl-tRNA synthetase, putative (Trypanosoma cruzi (strain CL Brener))
Sequence (whole entry): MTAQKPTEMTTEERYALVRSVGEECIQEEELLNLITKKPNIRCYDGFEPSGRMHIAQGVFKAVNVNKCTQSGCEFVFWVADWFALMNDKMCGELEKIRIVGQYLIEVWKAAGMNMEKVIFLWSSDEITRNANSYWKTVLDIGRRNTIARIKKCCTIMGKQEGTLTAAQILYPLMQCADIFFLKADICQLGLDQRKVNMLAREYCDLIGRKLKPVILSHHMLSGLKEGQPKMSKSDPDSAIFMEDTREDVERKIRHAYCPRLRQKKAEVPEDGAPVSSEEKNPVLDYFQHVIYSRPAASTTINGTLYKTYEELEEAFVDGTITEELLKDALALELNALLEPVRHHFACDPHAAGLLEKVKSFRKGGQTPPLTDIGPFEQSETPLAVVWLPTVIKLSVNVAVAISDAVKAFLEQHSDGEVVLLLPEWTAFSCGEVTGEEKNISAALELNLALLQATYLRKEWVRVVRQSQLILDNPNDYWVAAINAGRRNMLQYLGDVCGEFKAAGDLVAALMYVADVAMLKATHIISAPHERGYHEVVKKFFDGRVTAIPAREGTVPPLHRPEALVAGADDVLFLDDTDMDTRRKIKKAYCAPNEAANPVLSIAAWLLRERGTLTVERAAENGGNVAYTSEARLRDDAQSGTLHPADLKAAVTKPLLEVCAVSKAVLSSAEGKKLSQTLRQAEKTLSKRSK
test protocol: Trypanosoma cruzi tyrosyl tRNA synthetase (TcYRS) _High Tyrosine SOP
Type: functional
Parameters: scale not given: in the data most compounds retested in dose-response had high values
test conditions: 30 µM
measured attribute: Percent Effect (%)

> print(dat)
                                    compound  measured
 1  CC(Sc1nnnn1C1CCOCC1)C(=O)NC1CCCCC1 (configuration not stated)       7.1
 2  Cc1ncc(C)c(N2CCCC(CO)(Cc3cccc(Cl)c3)C2)n1 (configuration not stated)      7.53
 3      COc1ccccc1OCC(=O)NS(=O)(=O)c1ccccc1F      2.65
 4  Cc1nn(CC(=O)N2CCCCC2Cn2cccn2)c(C)c1Cl (configuration not stated)      1.98
 5    Cc1cc(CN2CCN(C(=O)c3sccc3C3CC3)CC2)on1      4.76
 6              Cc1c(I)cccc1C(=O)NCC1(CO)CC1     0.529
 7  O=C(c1ccc(-n2cccn2)nc1)N1CCCN(c2cccnn2)CC1    -0.952
 8              Cc1ccc(NC(=O)Cn2cc(I)cn2)cc1     -4.21
 9       Cc1cc(N2CCN(CCO)CC2)nc(-c2ccncc2)n1      7.45
10  O=S(=O)(NCC1(O)CCOc2ccccc21)c1cccs1 (configuration not stated)      1.07
11  CCc1ccc(CN2CCCC(CO)(CCOC)C2)cc1 (configuration not stated)     -1.07
12            CCCNC(=O)N1CCN(Cc2cc(C)no2)CC1      8.37
13  O=C(NCC1CC1)[C@H]1C[C@H]2OCC[C@H]2N(Cc2ccoc2)C1      3.24
14  Cc1occc1C(=O)N1CCc2ncnc(-c3cnn(C)c3)c2CC1      1.07
15  CCN1CC(C(=O)NC(C)(C)CNC(=O)OC(C)(C)C)CC1=O (configuration not stated)       4.3
16  Cc1nn(C)c(C)c1C1CCCN1C(=O)CCNc1ncccn1 (configuration not stated)      3.45
17              Cc1cc(NC(=O)CCc2ccsc2)n(C)n1      1.05
18  O=C(NC[C@]12COC[C@H]1CN(Cc1nccs1)C2)c1ccccc1      2.12
19  Cc1cc(C)n(CCCNC(=O)C(C)NC(=O)c2ccccc2Cl)n1 (configuration not stated)      5.32
20  Cc1cc(C)n(C2CCCN(C(=O)CCCNc3ncccn3)C2)n1 (configuration not stated)      4.17
21  COc1cccc(-n2c(C)cc(C(=O)NS(C)(=O)=O)c2C)c1       6.4
22  CCC1CN(c2nnc(C)c(C)c2C#N)CCO1 (configuration not stated)      0.49
